Where these numbers come from: the supplement of paper PMC4932681

Provide the recorded viability inhibition at highest dose for the entries that follow.
test system: MCF-7; assay: viability inhibition at highest dose (% inhibition); higher = more growth inhibition; conditions: 4-OH-tamoxifen in medium 1 µM; 72 h
Where a name gives a salt, the structure may show the parent alone.
No unit in the answer, please; the number alone is enough.

Which measured viability inhibition at highest dose value corresponds to CC/C(=C(\c1ccccc1)c1ccc(OCCN(C)C)cc1)c1ccccc1 [Tamoxifen citrate] (drug 10000 nM) ?
78.6

Consider next the compound Nc1cccc2c1CN(C1CCC(=O)NC1=O)C2=O (centres undefined) [Lenalidomide] (drug 10000 nM) in the same way.
29.1

Consider next the compound CC(=O)O[C@H]1C(=O)[C@@]2(C)[C@H]([C@H](OC(=O)c3ccccc3)[C@]3(O)C[C@H](OC(=O)[C@H](O)[C@@H](NC(=O)c4ccccc4)c4ccccc4)C(C)=C1C3(C)C)[C@]1(OC(C)=O)CO[C@@H]1C[C@@H]2O [Paclitaxel] (drug 1000 nM) in the same way.
25.8

Consider next the compound Cn1c(CCCC(=O)O)nc2cc(N(CCCl)CCCl)ccc21 [Bendamustine (hydrochloride hydrate)] (drug 10000 nM) in the same way.
-4.09
